Assay: Clearance in BALB/C mouse at 10 mg/kg, po or 2 mg/kg, iv by LC-MS/MS method
Format: ADME, organism-based
Conditions: in vivo
reported_metric: clearance (mL/min/kg)
Give the value, in units of mL/min/kg, as a plain number.

Incoming: Specify measured clearance for Nc1ccccc1NC(=O)/C=C/c1ccc(C(NCCN2CCOCC2)C(=O)Nc2ccc(C(F)(F)F)cc2)cc1 (racemic) .
Outgoing: 122

Others:
Incoming: Specify measured clearance for CN1C[C@H](C(=O)Nc2ccc(Cl)cc2)[C@@H](c2ccc(/C=C/C(=O)Nc3ccccc3N)cc2)C1 (racemic) .
Outgoing: 39

Incoming: Specify measured clearance for CC(C)(CO)N1C[C@H](C(=O)Nc2ccc(Cl)cc2)[C@@H](c2ccc(/C=C/C(=O)Nc3ccccc3N)cc2)C1 (racemic) .
Outgoing: 27

###

Biological target: Histone deacetylase 11 (Homo sapiens, UniProt Q96DB2)
Sequence (Q96DB2 whole entry): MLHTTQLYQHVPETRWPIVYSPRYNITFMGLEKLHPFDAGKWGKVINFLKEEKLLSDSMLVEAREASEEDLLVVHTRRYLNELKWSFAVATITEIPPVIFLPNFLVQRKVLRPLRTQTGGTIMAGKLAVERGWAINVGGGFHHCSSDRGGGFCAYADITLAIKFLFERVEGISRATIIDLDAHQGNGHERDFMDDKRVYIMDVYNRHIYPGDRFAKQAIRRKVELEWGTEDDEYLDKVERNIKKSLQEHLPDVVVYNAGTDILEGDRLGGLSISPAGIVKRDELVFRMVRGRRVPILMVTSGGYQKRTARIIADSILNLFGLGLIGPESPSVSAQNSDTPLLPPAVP
reported_metric: pIC50
On this scale, pIC50 is minus log10 of a concentration expressed in M (mol/L).

Incoming: Give pIC50 for `CN1C[C@H](C(=O)Nc2ccc(Cl)cc2)[C@@H](c2ccc(/C=C/C(=O)Nc3ccccc3N)cc2)C1` tested on Histone deacetylase 11 (Homo sapiens, UniProt Q96DB2).
Outgoing: 4.85

###

Test: Oral bioavailability in BALB/C mouse at 10 mg/kg by LC-MS/MS method
Assay type: ADME, organism-based
Conditions: BALB/C, in vivo
Label rule, in plain words: bioavailability of 20% and up is Condition met, under 20% is Condition not met.

Solved entries (count: 5):
Incoming: Evaluate CC(C)(O)CN1C[C@H](C(=O)Nc2ccc(Cl)cc2)[C@@H](c2ccc(/C=C/C(=O)Nc3ccccc3N)cc2)C1 (racemic) : bioavailability at minimum 20%?
Outgoing: Condition met

Incoming: Evaluate `CN1C[C@@H](C(=O)Nc2ccc(Cl)cc2)[C@H](c2ccc(/C=C/C(=O)Nc3ccccc3N)cc2)C1` : bioavailability at minimum 20%?
Outgoing: Condition met

Incoming: Evaluate CC(C)(C)N1C[C@H](C(=O)Nc2ccc(Cl)cc2)[C@@H](c2ccc(/C=C/C(=O)Nc3ccccc3N)cc2)C1 (racemic) : bioavailability at minimum 20%?
Outgoing: Condition met

Incoming: Evaluate Nc1ccccc1NC(=O)/C=C/c1ccc(C(NCCN2CCOCC2)C(=O)Nc2ccc(C(F)(F)F)cc2)cc1 (racemic) : bioavailability at minimum 20%?
Outgoing: Condition not met

Incoming: Evaluate CN1C[C@H](C(=O)Nc2ccc(F)c(F)c2)[C@@H](c2ccc(/C=C/C(=O)Nc3ccccc3N)cc2)C1 (racemic) : bioavailability at minimum 20%?
Outgoing: Condition met

Shifting focus to the molecule that follows.
Incoming: Evaluate Nc1ccccc1NC(=O)/C=C/c1ccc([C@H]2CN(CCO)C[C@@H]2C(=O)Nc2ccc(Cl)cc2)cc1 (racemic) : bioavailability at minimum 20%?
Outgoing: Condition met

###

Reported Tmax by item:
Test: Tmax in BALB/C mouse at 5 mg/kg, po or 1 mg/kg, iv by LC-MS/MS method
Assay type: ADME, organism-based
Settings: in vivo
Give the value, in units of h, as a plain number.

Incoming: Specify measured Tmax for CN1C[C@H](C(=O)Nc2ccc(Cl)cc2)[C@@H](c2ccc(/C=C/C(=O)Nc3ccccc3N)cn2)C1 (racemic) .
Outgoing: 0.17

With those in mind, consider the next compound.
Incoming: Specify measured Tmax for CN1C[C@H](C(=O)Nc2ccc(F)cc2)[C@@H](c2ccc(/C=C/C(=O)Nc3ccccc3N)cc2)C1 (racemic) .
Outgoing: 2

###

Molecular target: Cytochrome P450 2C19 (Homo sapiens)
Sequence (P33261 whole entry): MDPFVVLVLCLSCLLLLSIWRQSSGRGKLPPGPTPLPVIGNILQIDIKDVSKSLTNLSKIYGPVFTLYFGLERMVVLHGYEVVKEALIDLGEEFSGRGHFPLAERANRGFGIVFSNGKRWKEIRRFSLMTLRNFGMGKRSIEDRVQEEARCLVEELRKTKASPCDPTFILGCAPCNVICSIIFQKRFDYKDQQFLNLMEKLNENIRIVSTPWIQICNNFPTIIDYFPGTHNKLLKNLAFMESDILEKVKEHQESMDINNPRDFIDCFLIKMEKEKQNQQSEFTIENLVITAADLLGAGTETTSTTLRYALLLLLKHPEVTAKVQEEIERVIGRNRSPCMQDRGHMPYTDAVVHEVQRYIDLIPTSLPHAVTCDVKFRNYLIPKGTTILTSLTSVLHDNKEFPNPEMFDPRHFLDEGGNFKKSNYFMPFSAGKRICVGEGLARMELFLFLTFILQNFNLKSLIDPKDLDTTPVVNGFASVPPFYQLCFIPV
reported_metric: pIC50
On this scale, pIC50 is minus log10 of a concentration expressed in M (mol/L).

Incoming: Give pIC50 for `CN1C[C@H](C(=O)Nc2ccc(Cl)cc2)[C@@H](c2ccc(/C=C/C(=O)Nc3ccccc3N)cc2)C1` tested on Cytochrome P450 2C19 (Homo sapiens).
Outgoing: 4.37

###

Biological target: Histone deacetylase 9 (Homo sapiens, UniProt Q9UKV0)
Sequence (Q9UKV0 whole entry): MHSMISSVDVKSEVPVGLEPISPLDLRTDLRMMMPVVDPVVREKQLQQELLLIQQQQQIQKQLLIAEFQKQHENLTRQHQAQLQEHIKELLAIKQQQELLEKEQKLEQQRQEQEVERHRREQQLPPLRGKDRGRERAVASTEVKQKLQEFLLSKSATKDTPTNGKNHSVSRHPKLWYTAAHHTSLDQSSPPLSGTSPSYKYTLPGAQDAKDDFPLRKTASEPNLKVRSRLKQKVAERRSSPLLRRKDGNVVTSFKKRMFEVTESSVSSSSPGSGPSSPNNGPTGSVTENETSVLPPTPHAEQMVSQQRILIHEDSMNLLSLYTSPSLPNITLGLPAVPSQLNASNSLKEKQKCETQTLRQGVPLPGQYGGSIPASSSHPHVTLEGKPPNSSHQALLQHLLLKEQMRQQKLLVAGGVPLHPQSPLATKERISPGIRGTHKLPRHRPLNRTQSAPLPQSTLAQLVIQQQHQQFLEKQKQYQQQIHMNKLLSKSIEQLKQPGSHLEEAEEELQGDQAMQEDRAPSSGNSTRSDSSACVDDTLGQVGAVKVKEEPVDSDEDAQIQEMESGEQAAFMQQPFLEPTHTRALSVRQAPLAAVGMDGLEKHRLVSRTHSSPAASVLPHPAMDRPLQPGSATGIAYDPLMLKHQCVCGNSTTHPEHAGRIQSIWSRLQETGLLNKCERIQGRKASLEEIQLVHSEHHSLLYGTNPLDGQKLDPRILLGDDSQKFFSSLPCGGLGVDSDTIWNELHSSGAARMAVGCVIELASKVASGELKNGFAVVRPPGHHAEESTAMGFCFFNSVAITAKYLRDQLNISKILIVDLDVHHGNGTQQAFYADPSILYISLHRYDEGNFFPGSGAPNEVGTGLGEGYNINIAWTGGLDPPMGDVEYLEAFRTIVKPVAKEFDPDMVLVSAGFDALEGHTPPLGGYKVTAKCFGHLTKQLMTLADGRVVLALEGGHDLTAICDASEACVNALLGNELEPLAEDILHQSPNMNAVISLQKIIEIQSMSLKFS
reported_metric: pIC50
On this scale, pIC50 is minus log10 of a concentration expressed in M (mol/L).

Incoming: Give pIC50 for CN1C[C@H](C(=O)Nc2ccc(Cl)cc2)[C@@H](c2ccc(/C=C/C(=O)Nc3ccccc3N)cc2F)C1 (racemic) tested on Histone deacetylase 9 (Homo sapiens, UniProt Q9UKV0).
Outgoing: 4.37

###

Biological target: Histone deacetylase (Homo sapiens) (UniProt Q13547+O15379+Q9UBN7+Q92769+Q9UQL6+Q8WUI4+Q9BY41+Q96DB2+P56524+Q9UKV0+Q969S8)
Experiment: Inhibition of Class 1 histone deacetylase in human HeLa cells assessed as induction in p21 protein expression at 3 uM incubated for 16 hrs by luciferase reporter gene assay relative to HDAC inhibitor entinostat
Type: cell-based
Design: scale not given: the % may be the effect or the level left
reported_metric: Activity (%)
Give the value, in units of %, as a plain number.

A selection of reference data follows.
Incoming: Specify measured Activity for Nc1ccccc1NC(=O)/C=C/c1ccc(C(NCCN2CCOCC2)C(=O)Nc2ccc(C(F)(F)F)cc2)cc1 (racemic) .
Outgoing: 100

Incoming: Specify measured Activity for CN1C[C@H](C(=O)Nc2cccnc2)[C@@H](c2ccc(/C=C/C(=O)Nc3ccccc3N)cc2)C1 (racemic) .
Outgoing: 80

Incoming: Specify measured Activity for Cc1cc(NC(=O)[C@H]2CN(C)C[C@@H]2c2ccc(/C=C/C(=O)Nc3ccccc3N)cc2)ccc1Cl (racemic) .
Outgoing: 210

Incoming: Specify measured Activity for Cc1ccc(NC(=O)[C@H]2CN(C)C[C@@H]2c2ccc(/C=C/C(=O)Nc3ccccc3N)cc2)cn1 (racemic) .
Outgoing: 130

Incoming: Specify measured Activity for CC(C)c1ccc(NC(=O)[C@H]2CN(C)C[C@@H]2c2ccc(/C=C/C(=O)Nc3ccccc3N)cc2)cc1 (racemic) .
Outgoing: 70

Incoming: Specify measured Activity for Nc1ccccc1NC(=O)/C=C/c1ccc([C@H]2CN(Cc3ccccc3)C[C@@H]2C(=O)Nc2ccc(Cl)cc2)cc1 (racemic) .
Outgoing: 70

Incoming: Specify measured Activity for COc1cccc(NC(=O)[C@H]2CN(C)C[C@@H]2c2ccc(/C=C/C(=O)Nc3ccccc3N)cc2)c1 (racemic) .
Outgoing: 170

Incoming: Specify measured Activity for CN1C[C@H](C(=O)Nc2cccc(F)c2)[C@@H](c2ccc(/C=C/C(=O)Nc3ccccc3N)cc2)C1 (racemic) .
Outgoing: 190

Incoming: Specify measured Activity for CC(C)(C)N1C[C@H](C(=O)Nc2ccc(Cl)cc2)[C@@H](c2ccc(/C=C/C(=O)Nc3ccccc3N)cc2)C1 (racemic) .
Outgoing: 160

Incoming: Specify measured Activity for Nc1ccccc1NC(=O)/C=C/c1ccc([C@H]2CN(c3ncccn3)C[C@@H]2C(=O)Nc2ccc(Cl)cc2)cc1 (racemic) .
Outgoing: 120

Others:
Incoming: Specify measured Activity for CN1C[C@H](C(=O)Nc2ccc(F)c(Br)c2)[C@@H](c2ccc(/C=C/C(=O)Nc3ccccc3N)cc2)C1 (racemic) .
Outgoing: 200

Incoming: Specify measured Activity for CC(C)(CO)N1C[C@H](C(=O)Nc2ccc(Cl)cc2)[C@@H](c2ccc(/C=C/C(=O)Nc3ccccc3N)cc2)C1 (racemic) .
Outgoing: 260

Incoming: Specify measured Activity for CN1C[C@H](C(=O)Nc2ccc(Cl)cc2)[C@@H](c2ccc(/C=C/C(=O)Nc3ccccc3N)cc2F)C1 (racemic) .
Outgoing: 130

Incoming: Specify measured Activity for Cc1cc(NC(=O)[C@H]2CN(C)C[C@@H]2c2ccc(/C=C/C(=O)Nc3ccccc3N)cc2)ccc1F (racemic) .
Outgoing: 200

###

Assay: Volume of distribution at steady state in BALB/C mouse at 10 mg/kg, po or 2 mg/kg, iv by LC-MS/MS method
Type: ADME, organism-based
Set-up: unit not given here
Settings: in vivo, read-out: Vdss
One threshold, 7, splits the recorded Vd values: lower ones are met, equal or higher ones are not met.

Solved entries (count: 3):
Incoming: Input CC(C)(C)N1C[C@H](C(=O)Nc2ccc(Cl)cc2)[C@@H](c2ccc(/C=C/C(=O)Nc3ccccc3N)cc2)C1 (racemic) ; condition: Vd strictly below 7. Does it hold?
Outgoing: not met

Incoming: Input CC(C)N1C[C@H](C(=O)Nc2ccc(Cl)cc2)[C@@H](c2ccc(/C=C/C(=O)Nc3ccccc3N)cc2)C1 (racemic) ; condition: Vd strictly below 7. Does it hold?
Outgoing: not met

Incoming: Input CN1C[C@H](C(=O)Nc2ccc(Cl)cc2)[C@@H](c2ccc(/C=C/C(=O)Nc3ccccc3N)cc2F)C1 (racemic) ; condition: Vd strictly below 7. Does it hold?
Outgoing: met

Others:
Incoming: Input Nc1ccccc1NC(=O)/C=C/c1ccc([C@H]2CN(CCO)C[C@@H]2C(=O)Nc2ccc(Cl)cc2)cc1 (racemic) ; condition: Vd strictly below 7. Does it hold?
Outgoing: met

Incoming: Input CC(C)(O)CN1C[C@H](C(=O)Nc2ccc(Cl)cc2)[C@@H](c2ccc(/C=C/C(=O)Nc3ccccc3N)cc2)C1 (racemic) ; condition: Vd strictly below 7. Does it hold?
Outgoing: met

Incoming: Input Nc1ccccc1NC(=O)/C=C/c1ccc([C@H]2CN(C3CCOCC3)C[C@@H]2C(=O)Nc2ccc(Cl)cc2)cc1 (racemic) ; condition: Vd strictly below 7. Does it hold?
Outgoing: met

Incoming: Input CC(C)(CO)N1C[C@H](C(=O)Nc2ccc(Cl)cc2)[C@@H](c2ccc(/C=C/C(=O)Nc3ccccc3N)cc2)C1 (racemic) ; condition: Vd strictly below 7. Does it hold?
Outgoing: met
